- testedSystem: Gamma-aminobutyric acid receptor subunit alpha-6/beta-3/gamma-2 (Rattus norvegicus, UniProt P18508+P30191+P63079)
- Sequence (P18508 whole entry): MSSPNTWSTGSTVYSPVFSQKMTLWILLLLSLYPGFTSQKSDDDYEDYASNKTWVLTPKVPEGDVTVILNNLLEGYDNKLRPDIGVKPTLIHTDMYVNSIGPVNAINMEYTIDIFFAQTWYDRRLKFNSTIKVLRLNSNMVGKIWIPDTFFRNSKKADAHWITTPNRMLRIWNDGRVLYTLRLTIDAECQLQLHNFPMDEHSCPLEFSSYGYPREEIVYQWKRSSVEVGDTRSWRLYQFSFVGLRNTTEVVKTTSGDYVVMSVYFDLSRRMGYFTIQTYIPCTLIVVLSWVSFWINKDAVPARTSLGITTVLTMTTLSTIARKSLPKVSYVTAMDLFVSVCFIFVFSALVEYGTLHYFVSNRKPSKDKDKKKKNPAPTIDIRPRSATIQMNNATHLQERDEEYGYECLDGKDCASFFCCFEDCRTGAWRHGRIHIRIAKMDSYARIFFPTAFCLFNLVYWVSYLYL
- Sequence (P30191 whole entry): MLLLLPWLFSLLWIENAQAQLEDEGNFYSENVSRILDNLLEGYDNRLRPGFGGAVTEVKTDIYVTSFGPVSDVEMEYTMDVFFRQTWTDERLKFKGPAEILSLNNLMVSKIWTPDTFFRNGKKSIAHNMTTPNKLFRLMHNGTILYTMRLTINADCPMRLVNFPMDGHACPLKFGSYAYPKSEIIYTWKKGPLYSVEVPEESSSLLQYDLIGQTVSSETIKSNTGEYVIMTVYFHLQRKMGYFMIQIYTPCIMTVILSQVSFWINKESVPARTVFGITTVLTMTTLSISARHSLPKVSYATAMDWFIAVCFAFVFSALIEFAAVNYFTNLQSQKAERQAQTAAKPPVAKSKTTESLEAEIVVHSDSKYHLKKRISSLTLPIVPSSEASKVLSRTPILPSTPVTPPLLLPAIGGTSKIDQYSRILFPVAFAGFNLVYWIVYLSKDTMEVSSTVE
- Sequence (P63079 whole entry): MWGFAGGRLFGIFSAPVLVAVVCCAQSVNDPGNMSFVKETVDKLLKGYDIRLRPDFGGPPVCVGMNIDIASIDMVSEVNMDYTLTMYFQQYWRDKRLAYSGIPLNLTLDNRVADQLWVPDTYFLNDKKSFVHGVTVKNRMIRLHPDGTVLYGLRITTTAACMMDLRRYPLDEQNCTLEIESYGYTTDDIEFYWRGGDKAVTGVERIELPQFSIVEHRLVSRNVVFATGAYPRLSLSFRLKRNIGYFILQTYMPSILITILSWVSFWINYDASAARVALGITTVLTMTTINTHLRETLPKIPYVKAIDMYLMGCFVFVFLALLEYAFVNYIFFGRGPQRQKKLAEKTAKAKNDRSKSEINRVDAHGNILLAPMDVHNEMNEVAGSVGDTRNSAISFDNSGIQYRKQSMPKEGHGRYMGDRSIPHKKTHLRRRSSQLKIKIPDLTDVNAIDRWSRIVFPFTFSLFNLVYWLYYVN
- assayComment: Positive allosteric modulation of rat recombinant GABAA alpha6beta3gamma2 receptor expressed in Xenopus laevis oocytes assessed as increase in GABA-induced current amplitude at -80 mV holding potential under more potent phase in presence of GABA EC1 to 1.5 by two-electrode voltage-clamp assay
- Type: cell-based, Oocyte
metric: EC50 (nM)
Numbers only, in nM.

Form field EC50, entry COc1ccc(-n2nc3c4ccc(Br)cc4[nH]cc-3c2=O)cc1 : 1

* * *

- testedSystem: Gamma-aminobutyric acid receptor subunit alpha-1/alpha-6/beta-3/gamma-2 (Rattus norvegicus) (UniProt P18508+P30191+P62813+P63079)
- assayComment: Positive allosteric modulation of rat recombinant GABAA alpha6beta3alpha1-gamma2beta3 receptor expressed in Xenopus laevis oocytes assessed as maximal efficacy at -80 mV holding potential at 30 nM in presence of GABA EC1 to 1.5 by two-electrode voltage-clamp assay
- Type: cell-based
- condition: Oocyte
Assign Efficacy to each entry below.
Give bare numbers, in %.

As a guide, the following entries are already answered.
- chemicalString: "COc1ccc(-n2nc3c4ccc(Br)cc4[nH]cc-3c2=O)cc1"
  Efficacy / %: 8
- chemicalString: "COc1ccc(-n2nc3c4ccc(C(C)=O)cc4[nH]cc-3c2=O)cc1"
  Efficacy / %: 3
- chemicalString: "CCc1ccc2c3nn(-c4ccc(OC)cc4)c(=O)c-3c[nH]c2c1"
  Efficacy / %: 5

Kindly consider the entry below.
Looking up COc1ccc(-n2nc3c4ccc(C(F)(F)F)cc4[nH]cc-3c2=O)cc1 , I see its Efficacy listed as 1
